Origin of the recorded values: patent US10251886B1

# Tested on: A549 cell
# TEST_DETAILS: Cell viability assay (MTT assay), A549 cells
# Type: cell-based
# RUN_PARAMETERS: Homo sapiens, A549, 24 h, read-out: Cell viability (%)
Overview of recorded viability at 20 µM for various molecules
RECORDED_ENDPOINT: viability at 20 µM (%)

molecule=C#Cc1cccc(Nc2ncnc3cc(OCCO)c(OCCOC)cc23)c1 recorded_endpoint="viability at 20 µM" result=63.1
molecule="C#Cc1cccc(Nc2ncnc3cc(OCCI)c(OCCOC)cc23)c1 [Example E1]" recorded_endpoint="viability at 20 µM" result=26.3
molecule=C#Cc1cccc(Nc2ncnc3cc(OC)c(OCCOC)cc23)c1 recorded_endpoint="viability at 20 µM" result=62.4
molecule=C#Cc1cccc(Nc2ncnc3cc(OC)c(OCc4ccccc4)cc23)c1 recorded_endpoint="viability at 20 µM" result=73
molecule=C#Cc1cccc(Nc2ncnc3cc(OCCN)c(OCCOC)cc23)c1 recorded_endpoint="viability at 20 µM" result=74.1
molecule=C#Cc1cccc(Nc2ncnc3cc(OCCOC(C)=O)c(OCCOC)cc23)c1 recorded_endpoint="viability at 20 µM" result=70.1
molecule=C#Cc1cccc(Nc2ncnc3cc(OCCOS(C)(=O)=O)c(OCCOC)cc23)c1 recorded_endpoint="viability at 20 µM" result=56.1

---

# System: A549 cell
# TEST_DETAILS: Cell viability assay (MTT assay), A549 cells
# Type: cell-based
# RUN_PARAMETERS: Homo sapiens, A549, 24 h, read-out: Cell viability (%)
Some compounds, each annotated with its measured viability at 5 µM.
RECORDED_ENDPOINT: viability at 5 µM (%)

compound=C#Cc1cccc(Nc2ncnc3cc(OCCOS(C)(=O)=O)c(OCCOC)cc23)c1 result=73.7
compound=C#Cc1cccc(Nc2ncnc3cc(OCCOC(C)=O)c(OCCOC)cc23)c1 result=79.3
compound="C#Cc1cccc(Nc2ncnc3cc(OCCI)c(OCCOC)cc23)c1 [Example E1]" result=32.8
compound=C#Cc1cccc(Nc2ncnc3cc(OCCN)c(OCCOC)cc23)c1 result=75.4
compound=C#Cc1cccc(Nc2ncnc3cc(OC)c(OCc4ccccc4)cc23)c1 result=79.9
compound=C#Cc1cccc(Nc2ncnc3cc(OCCO)c(OCCOC)cc23)c1 result=74.5
compound=C#Cc1cccc(Nc2ncnc3cc(OC)c(OCCOC)cc23)c1 result=69.5
